Test system: SW620 (colon)
protocol-summary: MTT cytotoxicity assay, 48 hours (Example 14)
Format: cell-based, human
test-parameters: SW620, 10 nM
Non-standard residues stand in square brackets, D forms with d. Residues, ends and D or L forms follow the SMILES beside them. *: point of attachment. Aib = CC(C)(N)C(=O)O; Butyryl = CCCC(=O)*
observed-property: Percentage cytotoxicity (%)
Numbers only, in %.

input: Identify the measured Percentage cytotoxicity of CCCC(=O)N[C@H](Cc1ccccc1)C(=O)N[C@@H](CCC(N)=O)C(=O)N[C@@H](Cc1c[nH]c2ccccc12)C(=O)N[C@@H](C)C(=O)N[C@H](C(=O)NC(C)(C)C(=O)N[C@@H](Cc1c[nH]cn1)C(=O)N[C@@H](CC(C)C)C(N)=O)C(C)C [SEQ ID: 11] (Butyryl-[dF]QWAV[Aib]HL-NH2) for SW620 (colon).
output: 31.5

----------
System: HeP2 (laryngeal)
protocol-summary: MTT cytotoxicity assay, 48 hours (Example 14)
Format: cell-based
test-parameters: HeP2, 100 nM
Non-standard residues stand in square brackets, D forms with d. Residues, ends and D or L forms follow the SMILES beside them. *: point of attachment. Octanoyl = CCCCCCCC(=O)*; Ac5c = NC1(C(=O)O)CCCC1; Deg = CCC(N)(CC)C(=O)O; Aib = CC(C)(N)C(=O)O; Butyryl = CCCC(=O)*
For each entry below, report its Percentage cytotoxicity value.
Numbers only, in %.

Please review the entries below; each comes with its answer.
input: So what's the measured Percentage cytotoxicity for this one? CC(C)C[C@H](NC(=O)[C@H](Cc1c[nH]cn1)NC(=O)C1(NC(=O)[C@@H](NC(=O)[C@H](C)NC(=O)[C@H](Cc2c[nH]c3ccccc23)NC(=O)[C@H](CCC(N)=O)NC(=O)[C@H](N)Cc2ccccc2)C(C)C)CCCC1)C(N)=O [SEQ ID: 10, D-Phe-Gln-Trp-Ala-Val-Ac5c-His-Leu-NH2] (H-[dF]QWAV[Ac5c]HL-NH2; N-terminus assumed)
output: 26.3

input: Query (compound): CCC(CC)(NC(=O)[C@H](Cc1c[nH]c2ccccc12)NC(=O)[C@H](CCC(N)=O)NC(=O)[C@H](N)Cc1ccccc1)C(=O)N[C@H](C(=O)NCC(=O)N[C@@H](Cc1c[nH]cn1)C(=O)N[C@@H](CC(C)C)C(N)=O)C(C)C [SEQ ID: 9, D-Phe-Gln-Trp-Deg-Val-Gly-His-Leu-NH2] (H-[dF]QW[Deg]VGHL-NH2; N-terminus assumed) ; field requested: Percentage cytotoxicity
output: 17.8

input: Look at this compound and give its reported Percentage cytotoxicity. CCCC(=O)N[C@H](Cc1ccccc1)C(=O)N[C@@H](CCC(N)=O)C(=O)N[C@@H](Cc1c[nH]c2ccccc12)C(=O)N[C@@H](C)C(=O)N[C@H](C(=O)NC(C)(C)C(=O)N[C@@H](Cc1c[nH]cn1)C(=O)N[C@@H](CC(C)C)C(N)=O)C(C)C [SEQ ID: 11] (Butyryl-[dF]QWAV[Aib]HL-NH2)
output: 23.9

From here, focus on the item given below.
input: Quick check: Percentage cytotoxicity of CCCCCCCC(=O)N[C@H](Cc1ccccc1)C(=O)N[C@@H](CCC(N)=O)C(=O)N[C@@H](Cc1c[nH]c2ccccc12)C(=O)N[C@@H](C)C(=O)N[C@H](C(=O)NC(C)(C)C(=O)N[C@@H](Cc1c[nH]cn1)C(=O)N[C@@H](CC(C)C)C(N)=O)C(C)C [SEQ ID: 12] (Octanoyl-[dF]QWAV[Aib]HL-NH2) ?
output: 25.6

----------
Provide the reported Percentage cytotoxicity of each item.
Tested on: U87MG (Glioblastoma)
protocol-summary: MTT cytotoxicity assay, 48 hours (Example 14)
Format: cell-based
test-parameters: 1 μM
Non-standard residues stand in square brackets, D forms with d. Residues, ends and D or L forms follow the SMILES beside them. *: point of attachment. Octanoyl = CCCCCCCC(=O)*; Ac5c = NC1(C(=O)O)CCCC1; Aib = CC(C)(N)C(=O)O; Butyryl = CCCC(=O)*
Form field: result (number plus unit)

input: Sample CCCCCCCC(=O)N[C@H](Cc1ccccc1)C(=O)N[C@@H](CCC(N)=O)C(=O)N[C@@H](Cc1c[nH]c2ccccc12)C(=O)N[C@@H](C)C(=O)N[C@H](C(=O)NC(C)(C)C(=O)N[C@@H](Cc1c[nH]cn1)C(=O)N[C@@H](CC(C)C)C(N)=O)C(C)C [SEQ ID: 12] (Octanoyl-[dF]QWAV[Aib]HL-NH2) — what was its Percentage cytotoxicity?
output: 15.4 ± 3.1%

For every listed record, write down its Percentage cytotoxicity.
1. CC(C)C[C@H](NC(=O)[C@H](Cc1c[nH]cn1)NC(=O)C1(NC(=O)[C@@H](NC(=O)[C@H](C)NC(=O)[C@H](Cc2c[nH]c3ccccc23)NC(=O)[C@H](CCC(N)=O)NC(=O)[C@H](N)Cc2ccccc2)C(C)C)CCCC1)C(N)=O [SEQ ID: 10, D-Phe-Gln-Trp-Ala-Val-Ac5c-His-Leu-NH2] (H-[dF]QWAV[Ac5c]HL-NH2; N-terminus assumed)
2. CCCC(=O)N[C@H](Cc1ccccc1)C(=O)N[C@@H](CCC(N)=O)C(=O)N[C@@H](Cc1c[nH]c2ccccc12)C(=O)N[C@@H](C)C(=O)N[C@H](C(=O)NC(C)(C)C(=O)N[C@@H](Cc1c[nH]cn1)C(=O)N[C@@H](CC(C)C)C(N)=O)C(C)C [SEQ ID: 11] (Butyryl-[dF]QWAV[Aib]HL-NH2)

output:
["10.0 ± 0.0%", "1.0 ± 0.1%"]

----------
System: HuTu80 (Stomach)
protocol-summary: MTT cytotoxicity assay, 48 hours (Example 14)
Type: cell-based, human
test-parameters: HuTu80, 10 nM
Non-standard residues stand in square brackets, D forms with d. Residues, ends and D or L forms follow the SMILES beside them. *: point of attachment. Octanoyl = CCCCCCCC(=O)*; Ac5c = NC1(C(=O)O)CCCC1; Deg = CCC(N)(CC)C(=O)O; Aib = CC(C)(N)C(=O)O; Butyryl = CCCC(=O)*
Field: Percentage cytotoxicity. Provide a value for each of the molecules that follow.
One number for each entry, in %.

Reference set, count: 3
input: Please provide the recorded Percentage cytotoxicity for CCCC(=O)N[C@H](Cc1ccccc1)C(=O)N[C@@H](CCC(N)=O)C(=O)N[C@@H](Cc1c[nH]c2ccccc12)C(=O)N[C@@H](C)C(=O)N[C@H](C(=O)NC(C)(C)C(=O)N[C@@H](Cc1c[nH]cn1)C(=O)N[C@@H](CC(C)C)C(N)=O)C(C)C [SEQ ID: 11] (Butyryl-[dF]QWAV[Aib]HL-NH2) , tested on HuTu80 (Stomach).
output: 27.3

input: Hi! What's the reported Percentage cytotoxicity for CCCCCCCC(=O)N[C@H](Cc1ccccc1)C(=O)N[C@@H](CCC(N)=O)C(=O)N[C@@H](Cc1c[nH]c2ccccc12)C(=O)N[C@@H](C)C(=O)N[C@H](C(=O)NC(C)(C)C(=O)N[C@@H](Cc1c[nH]cn1)C(=O)N[C@@H](CC(C)C)C(N)=O)C(C)C [SEQ ID: 12] (Octanoyl-[dF]QWAV[Aib]HL-NH2) on HuTu80 (Stomach)?
output: 23.4

input: # value lookup — system HuTu80 (Stomach), readout Percentage cytotoxicity, item CC(C)C[C@H](NC(=O)[C@H](Cc1c[nH]cn1)NC(=O)C1(NC(=O)[C@@H](NC(=O)[C@H](C)NC(=O)[C@H](Cc2c[nH]c3ccccc23)NC(=O)[C@H](CCC(N)=O)NC(=O)[C@H](N)Cc2ccccc2)C(C)C)CCCC1)C(N)=O [SEQ ID: 10, D-Phe-Gln-Trp-Ala-Val-Ac5c-His-Leu-NH2] (H-[dF]QWAV[Ac5c]HL-NH2; N-terminus assumed)
output: 20.6

In the following, a different molecule is considered.
input: Hello, I am looking for reported Percentage cytotoxicity with HuTu80 (Stomach) for CCC(CC)(NC(=O)[C@H](Cc1c[nH]c2ccccc12)NC(=O)[C@H](CCC(N)=O)NC(=O)[C@H](N)Cc1ccccc1)C(=O)N[C@H](C(=O)NCC(=O)N[C@@H](Cc1c[nH]cn1)C(=O)N[C@@H](CC(C)C)C(N)=O)C(C)C [SEQ ID: 9, D-Phe-Gln-Trp-Deg-Val-Gly-His-Leu-NH2] (H-[dF]QW[Deg]VGHL-NH2; N-terminus assumed) . Could you help?
output: 23.5

----------
Tested on: PA-1 (ovary)
protocol-summary: MTT cytotoxicity assay, 72 hours (Example 13)
Type: cell-based, human
test-parameters: PA-1, 100 nM
Non-standard residues stand in square brackets, D forms with d. Residues, ends and D or L forms follow the SMILES beside them. Aib = CC(C)(N)C(=O)O
Provide the recorded Percent Cytotoxicity for the entries that follow.
Give bare numbers, in %.

input: Report Percent Cytotoxicity for CC(C)C[C@H](NC(=O)[C@H](Cc1c[nH]cn1)NC(=O)C(C)(C)NC(=O)[C@@H](NC(=O)[C@H](C)NC(=O)[C@@H](Cc1c[nH]c2ccccc12)NC(=O)[C@H](CCC(N)=O)NC(=O)[C@H](N)Cc1ccccc1)C(C)C)C(N)=O [SEQ ID: 5, D-Phe-Gln-D-Trp-Ala-Val-Aib-His-Leu-NH2] (H-[dF]Q[dW]AV[Aib]HL-NH2; N-terminus assumed) please.
output: 8.8

input: Percent Cytotoxicity for CC(C)C[C@H](NC(=O)[C@H](Cc1c[nH]cn1)NC(=O)CNC(=O)[C@@H](NC(=O)C(C)(C)NC(=O)[C@H](Cc1c[nH]c2ccccc12)NC(=O)[C@H](CCC(N)=O)NC(=O)[C@H](N)Cc1ccccc1)C(C)C)C(N)=O [SEQ ID: 4, D-Phe-Gln-Trp-Aib-Val-Gly-His-Leu-NH2] (H-[dF]QW[Aib]VGHL-NH2; N-terminus assumed) ?
output: 2.3

input: So what does the record say about Percent Cytotoxicity for CC[C@H](C)[C@H](NC(=O)[C@H](Cc1c[nH]cn1)NC(=O)C(C)(C)NC(=O)[C@@H](NC(=O)[C@H](C)NC(=O)[C@H](Cc1c[nH]c2ccccc12)NC(=O)[C@H](CCC(N)=O)NC(=O)[C@H](N)Cc1ccccc1)C(C)C)C(N)=O [SEQ ID: 7, D-Phe-Gln-Trp-Ala-Val-Aib-His-Ile-NH2] (H-[dF]QWAV[Aib]HI-NH2; N-terminus assumed) ?
output: 9.6

--- query ---
input: Any idea what its Percent Cytotoxicity is? The molecule is CCCC(CCC)(NC(=O)[C@@H](NC(=O)[C@H](C)NC(=O)[C@@H](Cc1c[nH]c2ccccc12)NC(=O)[C@H](CCC(N)=O)NC(=O)[C@H](N)Cc1ccccc1)C(C)C)C(=O)N[C@@H](Cc1c[nH]cn1)C(=O)N[C@@H](CC(C)C)C(N)=O
output: 10.4

The reported measurements were obtained from patent US6989371B1.
